Molecular target: 3-hydroxyanthranilate 3,4-dioxygenase (Homo sapiens)
Sequence (P46952 whole entry): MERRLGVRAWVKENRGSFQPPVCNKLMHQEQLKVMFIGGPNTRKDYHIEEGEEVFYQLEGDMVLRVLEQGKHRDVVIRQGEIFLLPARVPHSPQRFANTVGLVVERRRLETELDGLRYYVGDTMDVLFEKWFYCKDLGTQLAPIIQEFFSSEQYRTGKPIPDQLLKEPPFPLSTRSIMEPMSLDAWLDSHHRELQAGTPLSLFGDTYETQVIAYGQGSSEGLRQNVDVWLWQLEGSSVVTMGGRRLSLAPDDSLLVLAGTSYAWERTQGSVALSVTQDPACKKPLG
Assay: Inhibition of 3-HAO in human brain homogenates using [1-14C]-3-HANA as substrate assessed as [14C]-QUIN production after 1 hr by liquid scintillation spectrometric analysis
observationType: IC50 (µM)

>>> val("Cc1ccc(C(=O)O)c(N)[n+]1[O-]")
1.1

* * *

The entries below are paired with their reported inhibition.
Target: 3-hydroxyanthranilate 3,4-dioxygenase (Rattus norvegicus)
Assay: Inhibition of 3-HAO in Sprague-Dawley rat brain homogenates using [1-14C]-3-HANA as substrate assessed as [14C]-QUIN production at 100 uM after 1 hr by liquid scintillation spectrometric analysis relative to control
Assay type: tissue-based
observationType: inhibition (%)

>>> val("Nc1c(C(=O)O)ccc(Cl)[n+]1[O-]")
84
>>> val("Cc1cc(C)[n+]([O-])c(N)c1C(=O)O")
4.3
>>> val("Cc1ccc(C(=O)O)c(N)[n+]1[O-]")
94.1
>>> val("CCc1ccc(C(=O)O)c(N)[n+]1[O-]")
90.7
>>> val("Cc1cc(C(C)C)c(C(=O)O)c(N)[n+]1[O-]")
2.2
>>> val("Cc1cc(-c2ccccc2)c(C(=O)O)c(N)[n+]1[O-]")
5.5
>>> val("O=C(O)c1ccc(Cl)[n+]([O-])c1")
11.4
>>> val("Cc1ccc(C(N)=O)c(N)[n+]1[O-]")
-2
>>> val("Cc1ccc(C(=O)O)c(N)n1")
5.1
>>> val("CC(C)c1cc(C(C)C)[n+]([O-])c(N)c1C(=O)O")
2.9
>>> val("Nc1c(C(=O)O)ccc[n+]1[O-]")
84.9
>>> val("Nc1c(C(=O)O)cc(Br)c[n+]1[O-]")
55.2
>>> val("Cc1cc(C(=O)O)c(N)[n+]([O-])c1C")
61.6
>>> val("Cc1ccc(C#N)c(N)[n+]1[O-]")
-0.6
>>> val("CCc1cc(C)[n+]([O-])c(N)c1C(=O)O")
3.1
>>> val("Nc1c(C(=O)O)cc(Cl)c[n+]1[O-]")
42.6
>>> val("COC(=O)c1ccc(C)[n+]([O-])c1N")
1.2
>>> val("O=c1[nH]cnc2c1ccc[n+]2[O-]")
6.4
>>> val("Cc1cc(C(=O)O)c(N)[n+]([O-])c1")
30.7
